Measured On: T1, IFN-αF (human, UniProt P01568 24-189)
T1 construct: also called IFN-α21; alpha F
T1 chain: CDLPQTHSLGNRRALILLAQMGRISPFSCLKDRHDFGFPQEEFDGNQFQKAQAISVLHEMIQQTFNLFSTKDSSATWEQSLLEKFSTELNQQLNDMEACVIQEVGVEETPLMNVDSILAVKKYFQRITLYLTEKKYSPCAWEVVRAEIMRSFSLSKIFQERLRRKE
Assay Name: ProteOn, one antigen concentration
pKd: −log10 of the molar value.
// pKd lookup, one value per entry
Measured Quantity: pKd

INSERT INTO measurements (binder, data_value) VALUES
  ('IFWM3316 (antibody, V domains shown, VH IFWH591, VL IFWL1022; converted mAb; also called IFWB3051) VH: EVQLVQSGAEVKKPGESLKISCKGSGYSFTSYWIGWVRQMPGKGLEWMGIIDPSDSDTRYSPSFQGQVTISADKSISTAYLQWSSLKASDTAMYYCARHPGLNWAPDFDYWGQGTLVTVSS VL: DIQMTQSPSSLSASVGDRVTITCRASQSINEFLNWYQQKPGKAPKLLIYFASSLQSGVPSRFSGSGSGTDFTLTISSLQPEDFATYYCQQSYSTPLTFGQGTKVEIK', 10.48),
  ('IFWM3349 (antibody, V domains shown, VH IFWH624, VL IFWL1007; converted mAb; also called IFWB3084) VH: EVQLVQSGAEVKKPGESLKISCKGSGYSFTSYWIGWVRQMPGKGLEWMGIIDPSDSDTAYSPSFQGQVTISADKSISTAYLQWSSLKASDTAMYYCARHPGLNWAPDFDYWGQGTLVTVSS VL: DIQMTQSPSSLSASVGDRVTITCRASQSIGKSLNWYQQKPGKAPKLLIYFASSLQSGVPSRFSGSGSGTDFTLTISSLQPEDFATYYCQQSYDFPLTFGQGTKVEIK', 10.28),
  ('IFWM3340 (antibody, V domains shown, VH IFWH624, VL IFWL983; converted mAb; also called IFWB3075) VH: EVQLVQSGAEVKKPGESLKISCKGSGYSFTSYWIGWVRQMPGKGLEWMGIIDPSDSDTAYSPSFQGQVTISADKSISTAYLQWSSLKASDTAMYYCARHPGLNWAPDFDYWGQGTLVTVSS VL: DIQMTQSPSSLSASVGDRVTITCRASQSIDGSLNWYQQKPGKAPKLLIYFASSLQSGVPSRFSGSGSGTDFTLTISSLQPEDFATYYCQQSYDFPLTFGQGTKVEIK', 10.39),
  ('IFWM3319 (antibody, V domains shown, VH IFWH591, VL IFWL1041; converted mAb; also called IFWB3054) VH: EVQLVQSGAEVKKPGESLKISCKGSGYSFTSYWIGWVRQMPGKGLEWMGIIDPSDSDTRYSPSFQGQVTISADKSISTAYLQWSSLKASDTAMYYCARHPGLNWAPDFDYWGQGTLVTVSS VL: DIQMTQSPSSLSASVGDRVTITCRASQSITGFLNWYQQKPGKAPKLLIYAASSLQSGVPSRFSGSGSGTDFTLTISSLQPEDFATYYCQQSHDFPLTFGQGTKVEIK', 10.36),
  ('IFWM3333 (antibody, V domains shown, VH IFWH591, VL IFWL1076; converted mAb; also called IFWB3068) VH: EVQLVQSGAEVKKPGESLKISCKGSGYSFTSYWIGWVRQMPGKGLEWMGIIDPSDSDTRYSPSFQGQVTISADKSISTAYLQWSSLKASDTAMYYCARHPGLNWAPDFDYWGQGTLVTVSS VL: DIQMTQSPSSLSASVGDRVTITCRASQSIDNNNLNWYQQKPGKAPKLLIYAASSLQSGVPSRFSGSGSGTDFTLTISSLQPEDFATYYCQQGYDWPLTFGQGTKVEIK', 10.05);
